Data provenance is paper PMC7251097.

Form field: Plate 2 (% conversion) (one value per entry).
Biological target: His6-AspH315–758 (human aspartate/asparagine-β-hydroxylase, AspH) (Homo sapiens, UniProt Q12797)
Construct: N-Terminally His6-tagged human AspH315–758 (His6-AspH315–758) was produced in E. coli BL21 (DE3) cells; made in house; host or cells: E. coli BL21 (DE3), pET-28a(+) vector
Sequence (Q12797 315-758): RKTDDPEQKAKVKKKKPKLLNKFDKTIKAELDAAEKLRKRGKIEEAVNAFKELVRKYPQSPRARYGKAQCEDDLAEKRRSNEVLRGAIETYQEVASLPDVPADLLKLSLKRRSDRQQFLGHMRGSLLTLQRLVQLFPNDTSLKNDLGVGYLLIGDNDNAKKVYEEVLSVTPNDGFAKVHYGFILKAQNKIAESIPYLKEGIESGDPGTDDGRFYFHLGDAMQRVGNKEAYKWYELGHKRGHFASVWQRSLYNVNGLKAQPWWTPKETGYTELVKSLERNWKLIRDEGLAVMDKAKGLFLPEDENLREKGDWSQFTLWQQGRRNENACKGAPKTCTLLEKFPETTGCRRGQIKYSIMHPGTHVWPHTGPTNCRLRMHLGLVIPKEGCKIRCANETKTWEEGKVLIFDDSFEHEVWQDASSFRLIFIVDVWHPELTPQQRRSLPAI
Test: SPE-MS AspH inhibition assay (LOPAC screen at fixed 20 μM and IC50 dose-response), hydroxylation of cyclic peptide hFX-CP101–119
Format: biochemical
Conditions: LOPAC compound at 20uM, plate 2; conversion of substrate peptide
Counter-ions that a name gives are not always drawn.
Please respond with the number in % and leave the unit unwritten.

For NCCc1c[nH]cn1 [Histamine dihydrochloride] , what is its reported Plate 2 (% conversion)?
39.28

Item under review: C[C@]12CCC(=O)C=C1CC[C@@H]1[C@@H]2[C@@H](O)C[C@@]2(C)[C@H]1CC[C@]2(O)C(=O)CO [Hydrocortisone] . Reported Plate 2 (% conversion)?
37.93

Can you look up the measured Plate 2 (% conversion) of `C=C(c1ccc(C(=O)O)cc1)c1cc2c(cc1C)C(C)(C)CCC2(C)C` for me?
33.95

Reported Plate 2 (% conversion), compound COc1cc2nc(N3CCN(C(=O)C4COc5ccccc5O4)CC3)nc(N)c2cc1OC (stereo not shown) [Doxazosin mesylate] : ____
41.90

Item `N[C@H](C(=O)O)[C@H]1C[C@@H]1C(=O)O` has what recorded Plate 2 (% conversion)?
32.34

Which Plate 2 (% conversion) value belongs to COc1cc2c(CCNC(C)=O)c[nH]c2cc1O [6-Hydroxymelatonin] ?
36.89

Find the recorded Plate 2 (% conversion) belonging to `OCCN(CCO)c1nc(N2CCCCC2)c2nc(N(CCO)CCO)nc(N3CCCCC3)c2n1` and report it.
42.60

I would be grateful if you could share the reported Plate 2 (% conversion) for CC(CCc1ccc(O)cc1)NCCc1ccc(O)c(O)c1 (stereo not shown) [Dobutamine hydrochloride] .
8.47

For the compound shown here, CCN(CC)CCNC(=O)c1c(C)[nH]c(/C=C2\C(=O)Nc3ccc(F)cc32)c1C [Sunitinib malate] , give the reported Plate 2 (% conversion).
11.67

What does the data say about its Plate 2 (% conversion)? Entry: `COC(=O)C1=CO[C@@H](O)[C@@H]2C(CO)=CC[C@H]12`
36.58

// returns reported Plate 2 (% conversion) for input COc1cccc(OC)c1-c1cc(C(=O)NC2(C(=O)O)C3CC4CC(C3)CC2C4)nn1-c1ccc(C(=O)N(C)CCCN(C)C)cc1C(C)C (stereo not shown) [SR 142948A]
44.18

Could you share which Plate 2 (% conversion) value was measured for `Br.CN1CCc2cc(O)cc3c2[C@H]1Cc1ccc(O)c(O)c1-3` ?
6.73

// query Plate 2 (% conversion) value for entry Oc1ccc(C2CNCCc3c2cc(O)c(O)c3Cl)cc1 (stereo not shown) [Fenoldopam bromide, reference compound]
3.05

Fill in the blank: the reported Plate 2 (% conversion) of CC(C)C(=O)Nc1ccc([N+](=O)[O-])c(C(F)(F)F)c1 [Flutamide] is ____.
40.61

Using the record for `NCCCCCCCCCCN` , report its Plate 2 (% conversion).
36.39

State the recorded Plate 2 (% conversion) for this entry: CC(=O)O[C@H]1C[C@@]2(C)[C@@H](C[C@@H](O)[C@H]3[C@@]4(C)CC[C@@H](O)[C@@H](C)[C@@H]4CC[C@@]32C)/C1=C(\CCC=C(C)C)C(=O)[O-].[Na+] [Fusidic acid sodium]
40.54
